# ASSAY EXPLANATION: Selectivity index, ratio of GI50 for human MCF7 cells to MIC90 for Mycobacterium bovis BCG ATCC 35743 active stage
# Format: toxicity, cell-based
# ASSAY SETUP: read-out: Selectivity Index
ENDPOINT NAME: selectivity ratio
Please respond with just the number, no unit label.

SMILES TEXT | ENDPOINT NAME | VALUE MEASURED
C/C(=N\Nc1nc(-c2ccc(Cl)cc2)cs1)c1sc(-c2ccccc2)nc1C | selectivity ratio | 1

Ask: Please look up its selectivity ratio: `COc1ccc(-c2csc(N/N=C(\C)c3sc(C)nc3C)n2)cc1`
Reply: 1

Ask: Query `COc1ccc(-c2csc(N/N=C(\C)c3sc(-c4ccccc4)nc3C)n2)cc1` next
Reply: 7

Ask: Query `C/C(=N\NC(N)=S)c1sc(-c2ccccc2)nc1C` next
Reply: 9

Ask: Query `C/C(=N\Nc1nc(-c2ccccc2)cs1)c1sc(-c2ccccc2)nc1C` next
Reply: 5

Ask: Query `C/C(=N\NC(N)=S)c1sc(C)nc1C` next
Reply: 1

Ask: Query `C/C(=N\Nc1nc(-c2ccc(Cl)cc2)cs1)c1sc(C)nc1C` next
Reply: 6
